So I've got a bunch of compounds here, and I need their EC50 values.
- TESTED_TARGET: human activated kallikrein enzyme (Homo sapiens (Human), UniProt P03952)
- Sequence (P03952 391-638): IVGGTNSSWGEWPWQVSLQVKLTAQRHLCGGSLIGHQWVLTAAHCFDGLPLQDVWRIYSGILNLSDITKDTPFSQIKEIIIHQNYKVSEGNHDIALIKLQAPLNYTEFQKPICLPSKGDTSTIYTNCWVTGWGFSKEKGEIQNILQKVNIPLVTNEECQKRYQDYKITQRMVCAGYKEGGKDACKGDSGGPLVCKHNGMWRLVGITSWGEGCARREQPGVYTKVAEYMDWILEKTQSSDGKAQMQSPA
- Sequence (P03952 20-390 partner): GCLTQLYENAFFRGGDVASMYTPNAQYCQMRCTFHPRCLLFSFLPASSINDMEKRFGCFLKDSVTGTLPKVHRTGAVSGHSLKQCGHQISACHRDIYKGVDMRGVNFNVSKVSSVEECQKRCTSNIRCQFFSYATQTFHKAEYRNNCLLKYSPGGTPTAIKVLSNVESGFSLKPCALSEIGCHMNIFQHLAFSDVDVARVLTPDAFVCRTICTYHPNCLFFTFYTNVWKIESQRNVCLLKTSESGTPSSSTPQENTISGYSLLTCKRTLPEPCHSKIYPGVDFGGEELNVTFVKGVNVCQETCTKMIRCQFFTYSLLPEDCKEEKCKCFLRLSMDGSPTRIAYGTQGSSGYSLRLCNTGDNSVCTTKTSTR
- PROCEDURE_SUMMARY: Inhibition of human activated kallikrein enzyme, fluorogenic peptide substrate assay (two formats)
- Format: biochemical
- EXPERIMENTAL_CONDITIONS: Table 2; column head prints nM, ranges defined in μM; read-out: pKal EC50

// worked examples, EC50 included
>>> recorded_value("CNC(=O)[C@H](CCCCNC(=N)N)NC(=O)c1csc([C@H]2C[C@H](O)CN2C(=O)c2cn3cc(Cl)ccc3n2)n1")
"> 9900 nM"
>>> recorded_value("CNC(=O)[C@H](CCCCNC(=N)N)NC(=O)c1csc([C@@H]2C[C@@H](N)CN2C(=O)c2cc3cc(C(F)(F)F)ccc3s2)n1")
"100 to 1000 nM"

Consider now this further compound.
INPUT: EC50 lookup needed for Cc1cc(N)nc(C)c1CCNC(=O)c1csc([C@@H]2C[C@@H](N)CN2C(=O)c2cn3cc(Cl)ccc3n2)n1 , thanks.
OUTPUT: > 9900 nM

* * *

- TESTED_TARGET: Elastase
- PROCEDURE_SUMMARY: Selectivity screen of serine proteases, anti-target panel: Elastase
PROPERTY_MEASURED: IC50

// worked examples, IC50 included
>>> recorded_value("CNC(=O)[C@H](CCCCNC(=N)N)NC(=O)c1csc([C@@H]2C[C@@H](N)CN2C(=O)c2cn3cc(Cl)ccc3n2)n1")
"> 10 µM"
>>> recorded_value("CNC(=O)[C@H](CCCCNC(=N)N)NC(=O)c1csc([C@@H]2CCCN2C(=O)c2cn3cc(Cl)ccc3n2)n1")
"> 10 µM"

Consider now this further compound.
INPUT: IC50 lookup needed for Nc1nccc2cc(CCNC(=O)c3csc([C@@H]4C[C@@H](N)CN4C(=O)c4cn5cc(Cl)ccc5n4)n3)ccc12 , thanks.
OUTPUT: > 10 µM

* * *

- TESTED_TARGET: human activated kallikrein enzyme (Homo sapiens (Human), UniProt P03952)
- PROCEDURE_SUMMARY: Inhibition of human activated kallikrein enzyme, fluorogenic peptide substrate assay (two formats)
- Type: biochemical
- EXPERIMENTAL_CONDITIONS: Table 2; column head prints nM, ranges defined in μM; read-out: pKal EC50
So I've got a bunch of molecules here, and I need their EC50 values.

Batch request: EC50 per item, same order as input.
1. CNC(=O)[C@H](CCCCNC(=N)N)NC(=O)c1csc([C@@H]2C[C@@H](N)CN2C(=O)C(C)C)n1
2. Cc1cc(N)nc(C)c1CNC(=O)c1csc([C@@H]2C[C@@H](N)CN2C(=O)c2cn3cc(Cl)ccc3n2)n1
3. CNC(=O)[C@H](CCCCNC(=N)N)NC(=O)c1csc([C@@H]2C[C@@H](N)CN2C(=O)c2cc3c(Cl)cccc3s2)n1
4. CNC(=O)[C@H](CCCCNC(=N)N)NC(=O)c1csc([C@@H]2C[C@@H](N)CN2C(=O)c2cn3ccccc3n2)n1
5. CNC(=O)[C@H](CCCCNC(=N)N)NC(=O)c1csc([C@@H]2C[C@@H](N)CN2C(=O)c2ccccc2)n1

OUTPUT:
> 9900 nM
100 to 1000 nM
1000 to 5000 nM
100 to 1000 nM
> 9900 nM

Batch request: EC50 per item, same order as input.
1. CNC(=O)[C@H](CCCCNC(=N)N)NC(=O)c1csc([C@@H]2C[C@@H](N)CN2C(=O)c2cc3cc(Cl)ccc3s2)n1
2. N[C@@H]1C[C@@H](c2nc(C(=O)NCc3ncn4ccc(Cl)cc34)cs2)N(C(=O)c2cn3cc(Cl)ccc3n2)C1
3. CNC(=O)[C@H](Cc1ccc(O)cc1)NC(=O)c1csc([C@@H]2C[C@@H](N)CN2C(=O)c2cn3cc(Cl)ccc3n2)n1
4. CNC(=O)[C@@H](CCCCNC(=N)N)NC(=O)c1csc([C@H]2CCCN2C(=O)c2cn3cc(Cl)ccc3n2)n1
5. CNC(=O)[C@H](CCC(N)=O)NC(=O)c1csc([C@@H]2C[C@@H](N)CN2C(=O)c2cn3cc(Cl)ccc3n2)n1
6. CNC(=O)[C@@H](CCCCNC(=N)N)NC(=O)c1csc([C@@H]2C[C@@H](O)CN2C(=O)c2cn3cc(Cl)ccc3n2)n1
7. CNC(=O)[C@H](CCCCNC(=N)N)NC(=O)c1csc([C@@H]2C[C@@H](N)CN2C(=O)c2cn3cc(I)ccc3n2)n1
8. CNC(=O)[C@H](CCCCNC(=N)N)NC(=O)c1csc([C@@H]2CCCN2C(=O)c2cn3cc(Cl)ccc3n2)n1

OUTPUT:
100 to 1000 nM
100 to 1000 nM
> 9900 nM
> 9900 nM
> 9900 nM
5000 to 9900 nM
≤ 100 nM
1000 to 5000 nM
